- Tested on: 832693-133-R-J1-PDC multi-cell spheroids, viability;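 note: spheroids exposed to the drugs for one week before the viability readout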
- Method Notes: Anticancer human tumor 832693-133-R-J1-PDC patient-derived head and neck squamous carcinoma cell line growth inhibition [IpAb]
- Condition Context: curve of first compound; second compound 0.1 µM
Record form. Attribute: log10 of IC50. Fill in for each entry.
Short version: log10 scale, IC50, nM.

For every record below, what is its log10 of IC50?
1. Cc1nc(NC(=O)N2CCCC2C(N)=O)sc1-c1ccnc(C(C)(C)C(F)(F)F)c1 (stereo not drawn) + CCN1CCN(Cc2ccc(Nc3ncc(F)c(-c4cc(F)c5nc(C)n(C(C)C)c5c4)n3)nc2)CC1
2. CC(C)n1nc(-c2ccc3oc(N)nc3c2)c2c(N)ncnc21 + CC(C)NCC(C(=O)N1CCN(c2ncnc3c2C(C)CC3O)CC1)c1ccc(Cl)cc1
3. CC(C)(C)c1cnc(CSc2cnc(NC(=O)C3CCNCC3)s2)o1 + CCN1CCN(Cc2ccc(Nc3ncc(F)c(-c4cc(F)c5nc(C)n(C(C)C)c5c4)n3)nc2)CC1
4. C=CCn1c(=O)c2cnc(Nc3ccc(N4CCN(C)CC4)cc3)nc2n1-c1cccc(C(C)(C)O)n1 + CC(C)NCC(C(=O)N1CCN(c2ncnc3c2C(C)CC3O)CC1)c1ccc(Cl)cc1

1. 2.14
2. 1.90
3. 2.21
4. 2.12

log10 of IC50 on 832693-133-R-J1-PDC multi-cell spheroids, viability for CCCS(=O)(=O)Nc1ccc(F)c(C(=O)c2c[nH]c3ncc(-c4ccc(Cl)cc4)cc23)c1F + CC(C)NCC(C(=O)N1CCN(c2ncnc3c2C(C)CC3O)CC1)c1ccc(Cl)cc1 is 3.91

Reference source: PubChem BioAssay AID2060337
